Hey, just so you know, these numbers are from ChEMBL document CHEMBL3414563.

measurement-target: Muscarinic acetylcholine receptor M1 (Homo sapiens) (UniProt P11229)
Sequence (P11229 whole entry): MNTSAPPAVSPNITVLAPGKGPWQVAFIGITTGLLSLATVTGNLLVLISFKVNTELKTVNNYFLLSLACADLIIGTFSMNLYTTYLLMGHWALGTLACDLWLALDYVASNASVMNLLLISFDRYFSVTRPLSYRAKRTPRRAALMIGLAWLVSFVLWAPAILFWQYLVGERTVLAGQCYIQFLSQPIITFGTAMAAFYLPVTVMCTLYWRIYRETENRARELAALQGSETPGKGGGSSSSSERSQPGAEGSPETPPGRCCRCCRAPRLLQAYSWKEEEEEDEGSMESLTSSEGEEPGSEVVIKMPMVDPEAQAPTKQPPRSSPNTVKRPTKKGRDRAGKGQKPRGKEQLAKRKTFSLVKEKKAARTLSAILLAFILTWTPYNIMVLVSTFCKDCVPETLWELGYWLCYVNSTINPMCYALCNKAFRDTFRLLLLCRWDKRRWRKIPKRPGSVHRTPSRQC
measurement-protocol: Partial agonist activity at human muscarinic M1 acetylcholine receptor expressed in CHO cells assessed as increase in IP1 accumulation at 10 uM incubated for 30 mins in presence of 1 uM Gq protein inhibitor UBO-QIC by FRET based HTRF assay
Assay type: functional, cell-based
Activity calls are given as the source filed them. No cut-off for these calls is given here.
endpoint: Activity

>  <compound>
C[N+](C)(CC#CCOC1=NOCC1)CCCCCCNC(=O)c1cn(Cc2ccccc2)c2cc(Br)ccc2c1=O

>  <val>
inactive

$$$$
>  <compound>
C[N+](C)(CC#CCOC1=NOCC1)CCCCCCNC(=O)c1cn(Cc2ccccc2)c2cc(Cl)c(F)cc2c1=O

>  <val>
inactive

$$$$
>  <compound>
C[N+](C)(CC#CCOC1=NOCC1)CCCCNC(=O)c1cn(Cc2ccccc2)c2c(F)cccc2c1=O

>  <val>
inactive

$$$$

----------
measurement-target: Muscarinic acetylcholine receptor M1 (Homo sapiens) (UniProt P11229)
measurement-protocol: Allosteric inhibition of [3H]NMS dissociation from human muscarinic M1 acetylcholine receptor expressed in CHO cell membranes by radioligand binding assay
endpoint: pEC0.5
Reply briefly: the number, and no unit.

Field: example entries. Status: answers known.
>  <compound>
C[N+](C)(CC#CCOC1=NOCC1)CCCCNC(=O)c1cn(Cc2ccccc2)c2c(F)cccc2c1=O

>  <endpoint>
pEC0.5

>  <val>
6.04

$$$$
>  <compound>
CCCCCCCCN1CCC(n2c(=O)[nH]c3ccccc32)CC1

>  <endpoint>
pEC0.5

>  <val>
5.94

$$$$
>  <compound>
C[N+](C)(CC#CCOC1=NOCC1)CCCCCCNC(=O)c1cn(Cc2ccccc2)c2c(F)cccc2c1=O

>  <endpoint>
pEC0.5

>  <val>
6.1

$$$$
>  <compound>
O=C(NCCCCCCBr)c1cn(Cc2ccccc2)c2c(F)cccc2c1=O

>  <endpoint>
pEC0.5

>  <val>
6.15

$$$$

Challenge: Record request: pEC0.5 value, item `O=C(NCCCCBr)c1cn(Cc2ccccc2)c2c(F)cccc2c1=O`
Response given: 5.9

----------
As a worked illustration, we turn to EC50 data collected for Muscarinic acetylcholine receptor M1 (Homo sapiens).
endpoint: EC50 (nM)

>  <compound>
C[N+](C)(CC#CCOC1=NOCC1)CCCCCCNC(=O)c1cn(Cc2ccccc2)c2cc(Br)ccc2c1=O

>  <endpoint>
EC50

>  <val>
15.5

$$$$
>  <compound>
C[N+](C)(CC#CCOC1=NOCC1)CCCCNC(=O)c1cn(Cc2ccccc2)c2cc(Cl)c(F)cc2c1=O

>  <endpoint>
EC50

>  <val>
32.4

$$$$
>  <compound>
CCCCCCCCN1CCC(n2c(=O)[nH]c3ccccc32)CC1

>  <endpoint>
EC50

>  <val>
537

$$$$
>  <compound>
C[N+](C)(CC#CCOC1=NOCC1)CCCCNC(=O)c1cn(Cc2ccccc2)c2cc(Br)ccc2c1=O

>  <endpoint>
EC50

>  <val>
63.1

$$$$
>  <compound>
CC[C@@H]1SC2(CCNCC2)N(CCCCCCCCOc2ccc3cc(Cn4cc(C(=O)O)c(=O)c5cccc(F)c54)ccc3c2)C1=O

>  <endpoint>
EC50

>  <val>
60.3

$$$$

(A) C[N+](C)(CC#CCOC1=NOCC1)CCCCCCNC(=O)c1cn(Cc2ccccc2)c2ccc(F)cc2c1=O
(B) C[N+](C)(CC#CCOC1=NOCC1)CCCCCCNC(=O)c1cn(Cc2ccccc2)c2cc(Cl)c(F)cc2c1=O
(C) C[N+](C)(CC#CCOC1=NOCC1)CCCCCCNC(=O)c1cn(Cc2ccccc2)c2c(F)cccc2c1=O
Challenge: Sequence the entries by EC50, beginning with the highest number. Show the ranking through the labels, in the order asked for.
Response given: B, C, A
